test system: Streptococcus pneumoniae; assay: Antibacterial activity against macrolide resistant Streptococcus pneumoniae ATCC 700906; format: functional
Task for the reader: assign each of the following compounds its reported MIC.

CC[C@H]1OC(=O)C[C@@H](O)[C@H](C)[C@@H](O[C@@H]2O[C@H](C)[C@@H](O)[C@H](N(C)C)[C@@H]2O)[C@@H](CCN2CC(C)CC(C)C2)C[C@@H](C)C(=N/OCCCCc2ccc3ncccc3c2)/C=C/C(C)=C/C1CO (stereo partly drawn) :: > 12.5 µg/mL
CC[C@H]1OC(=O)C[C@@H](O)[C@H](C)[C@@H](O[C@@H]2O[C@H](C)[C@@H](O)[C@H](N(C)C)[C@H]2O)[C@@H](CC=O)C[C@@H](C)C(=O)/C=C/C(C)=C/C1CO (stereo partly drawn) :: > 12.5 µg/mL

stdin: Quote MIC reported for CC[C@H]1OC(=O)C[C@@H](O)[C@H](C)[C@@H](O[C@@H]2O[C@H](C)[C@@H](O)[C@H](N(C)C)[C@@H]2O)[C@@H](CCN2CC(C)CC(C)C2)C[C@@H](C)C(=N\OCC(=O)N2CCN(c3ccccc3)CC2)/C=C/C(C)=C/C1CO (stereo partly drawn) please.
stdout: > 12.5 µg/mL

###

Task for the reader: assign each of the following molecules its reported MIC.
system: Streptococcus pneumoniae; experiment: Antibacterial activity against macrolide resistant Streptococcus pneumoniae ATCC 700906; format: functional

CC[C@H]1OC(=O)C[C@@H](O)[C@H](C)[C@@H](O[C@@H]2O[C@H](C)[C@@H](O)[C@H](N(C)C)[C@H]2O)[C@@H](CC=O)C[C@@H](C)C(=N/OC/C=C\c2cnc3ccccc3c2)/C=C/C(C)=C/C1CO (some centres not stated) :: > 12.5 µg/mL

stdin: Quote MIC reported for CC[C@H]1OC(=O)C[C@@H](O)[C@H](C)[C@@H](O[C@@H]2O[C@H](C)[C@@H](O)[C@H](N(C)C)[C@@H]2O)[C@@H](CCN2CC(C)CC(C)C2)C[C@@H](C)C(=N\OCCOc2ccccc2)/C=C/C(C)=C/C1CO (some centres not stated) please.
stdout: > 12.5 µg/mL

###

system: Staphylococcus epidermidis; test: Antibacterial activity against Staphylococcus epidermidis ATCC 12228; type: functional
Task for the reader: assign each of the following compounds its reported MIC.

CC[C@H]1OC(=O)C[C@@H](O)[C@H](C)[C@@H](O[C@@H]2O[C@H](C)[C@@H](O)[C@H](N(C)C)[C@@H]2O)[C@@H](CCN2CC(C)CC(C)C2)C[C@@H](C)C(=N\OCc2ccc(F)cc2)/C=C/C(C)=C/C1CO (some centres undefined) :: 3.12 µg/mL

Hello, I would appreciate it if you could give MIC for each entry below.
1. CC[C@H]1OC(=O)C[C@@H](O)[C@H](C)[C@@H](O[C@@H]2O[C@H](C)[C@@H](O)[C@H](N(C)C)[C@@H]2O)[C@@H](CCN2CC(C)CC(C)C2)C[C@@H](C)C(=N\OCCOc2ccccc2)/C=C/C(C)=C/C1CO (some centres undefined)
2. CC[C@H]1OC(=O)C[C@@H](O)[C@H](C)[C@@H](O[C@@H]2O[C@H](C)[C@@H](O)[C@H](N(C)C)[C@H]2O)[C@@H](CC=O)C[C@@H](C)C(=N\OCC#Cc2cnc3ccccc3c2)/C=C/C(C)=C/C1CO (some centres undefined)

stdout:
["6.25 µg/mL", "0.2 µg/mL"]

stdin: Quote MIC reported for CC[C@H]1OC(=O)C[C@@H](O)[C@H](C)[C@@H](O[C@@H]2O[C@H](C)[C@@H](O)[C@H](N(C)C)[C@@H]2O)[C@@H](CCN2CC(C)CC(C)C2)C[C@@H](C)C(=N/OCCCc2ccc3ncccc3c2)/C=C/C(C)=C/C1CO (some centres undefined) please.
stdout: > 12.5 µg/mL

###

system: Streptococcus pneumoniae; assay: Antibacterial activity against Streptococcus pneumoniae ATCC 6301; format: functional
readout.label: MIC

CC[C@H]1OC(=O)C[C@@H](O)[C@H](C)[C@@H](O[C@@H]2O[C@H](C)[C@@H](O)[C@H](N(C)C)[C@H]2O)[C@@H](CC=O)C[C@@H](C)C(=N/OCC(=O)N2CCN(c3ccccc3)CC2)/C=C/C(C)=C/C1CO (stereo not given in full) :: 0.025 µg/mL
CC[C@H]1OC(=O)C[C@@H](O)[C@H](C)[C@@H](O[C@@H]2O[C@H](C)[C@@H](O)[C@H](N(C)C)[C@@H]2O)[C@@H](CCN2CC(C)CC(C)C2)C[C@@H](C)C(=O)/C=C/C(C)=C/C1CO (stereo not given in full) :: 0.39 µg/mL
CC[C@H]1OC(=O)C[C@@H](O)[C@H](C)[C@@H](O[C@@H]2O[C@H](C)[C@@H](O)[C@H](N(C)C)[C@H]2O)[C@@H](CC=O)C[C@@H](C)C(=N/OCC#Cc2cnc3ccccc3c2)/C=C/C(C)=C/C1CO (stereo not given in full) :: 0.025 µg/mL
CC[C@H]1OC(=O)C[C@@H](O)[C@H](C)[C@@H](O[C@@H]2O[C@H](C)[C@@H](O)[C@H](N(C)C)[C@H]2O)[C@@H](C=O)C[C@@H](C)C(=N\OCCCc2ccc3ncccc3c2)/C=C/C(C)=C/C1CO (stereo not given in full) :: 0.025 µg/mL

Please find the next molecule below.
stdin: Quote MIC reported for CC[C@H]1OC(=O)C[C@@H](O)[C@H](C)[C@@H](O[C@@H]2O[C@H](C)[C@@H](O)[C@H](N(C)C)[C@H]2O)[C@@H](CCN2CC(C)CC(C)C2)C[C@@H](C)C(=N/OCCCc2ccc3ncccc3c2)/C=C/C(C)=C/C1CO (stereo not given in full) please.
stdout: 0.025 µg/mL

###

system: Streptococcus pneumoniae; test: Antibacterial activity against macrolide resistant Streptococcus pneumoniae ATCC 700676; type: functional
Note to self: MIC under 0.2 µg/mL means yes (1), ties and anything higher get no (0).

Examples with answers:
CC[C@H]1OC(=O)C[C@@H](O)[C@H](C)[C@@H](O[C@@H]2O[C@H](C)[C@@H](O)[C@H](N(C)C)[C@@H]2O)[C@@H](CCN2CC(C)CC(C)C2)C[C@@H](C)C(=N/OCCCc2ccc3ncccc3c2)/C=C/C(C)=C/C1CO (some centres not stated) :: no (0)
CC[C@H]1OC(=O)C[C@@H](O)[C@H](C)[C@@H](O[C@@H]2O[C@H](C)[C@@H](O)[C@H](N(C)C)[C@H]2O)[C@@H](CC=O)C[C@@H](C)C(=N/OCC(=O)N2CCN(c3ccccc3)CC2)/C=C/C(C)=C/C1CO (some centres not stated) :: no (0)
CC[C@H]1OC(=O)C[C@@H](O)[C@H](C)[C@@H](O[C@@H]2O[C@H](C)[C@@H](O)[C@H](N(C)C)[C@H]2O)[C@@H](CC=O)C[C@@H](C)C(=N\OCCCOc2ccc3ncccc3c2)/C=C/C(C)=C/C1CO (some centres not stated) :: yes (1)
CC[C@H]1OC(=O)C[C@@H](O)[C@H](C)[C@@H](O[C@@H]2O[C@H](C)[C@@H](O)[C@H](N(C)C)[C@@H]2O)[C@@H](CCN2CC(C)CC(C)C2)C[C@@H](C)C(=N/O)/C=C/C(C)=C/C1CO (some centres not stated) :: no (0)
CC[C@H]1OC(=O)C[C@@H](O)[C@H](C)[C@@H](O[C@@H]2O[C@H](C)[C@@H](O)[C@H](N(C)C)[C@H]2O)[C@@H](CC=O)C[C@@H](C)C(=N/OCCCCc2cnc3ccccc3c2)/C=C/C(C)=C/C1CO (some centres not stated) :: yes (1)

stdin: In plain terms, does CC[C@H]1OC(=O)C[C@@H](O)[C@H](C)[C@@H](O[C@@H]2O[C@H](C)[C@@H](O)[C@H](N(C)C)[C@H]2O)[C@@H](CC=O)C[C@@H](C)C(=N\OC/C=C/c2cnc3ccccc3c2)/C=C/C(C)=C/C1CO (some centres not stated) come in under 0.2 µg/mL for MIC?
stdout: yes (1)

stdin: In plain terms, does CC[C@H]1OC(=O)C[C@@H](O)[C@H](C)[C@@H](O[C@@H]2O[C@H](C)[C@@H](O)[C@H](N(C)C)[C@H]2O)[C@@H](CC=O)C[C@@H](C)C(=N/OCCOc2ccccc2)/C=C/C(C)=C/C1CO (some centres not stated) come in under 0.2 µg/mL for MIC?
stdout: yes (1)

stdin: In plain terms, does CC[C@H]1OC(=O)C[C@@H](O)[C@H](C)[C@@H](O[C@@H]2O[C@H](C)[C@@H](O)[C@H](N(C)C)[C@H]2O)[C@@H](CC=O)C[C@@H](C)C(=N/OC/C=C\c2ccc3nccnc3c2)/C=C/C(C)=C/C1CO (some centres not stated) come in under 0.2 µg/mL for MIC?
stdout: yes (1)
